Tested on: MDA-MB-468 breast
Test Summary: NCI-60 one-dose screen, 48 h (100 = growth as untreated, 0 = no growth, -100 = all killed)
Condition Description: 10 µM unless noted
Compounds without any hit were thinned out: in the full panel of roughly 83,000, 20% have a hit.
Property Measured: growth (%)
Please give a number only; it is taken to be in %.

Exercise: I am curious: what growth value has been reported for `O=C1/C(=C/c2ccccc2)CN(CCC(=O)N2C/C(=C\c3ccccc3)C(=O)/C(=C/c3ccccc3)C2)C/C1=C\c1ccccc1` ?
Key: 66.9

Exercise: Field entry: `NC1(C(=O)O)CSSC1`
Key: 29.6

Exercise: Another: `Nc1cc(N)c(N)cc1N`
Key: 84.7

Exercise: // repeat for `COC(OC)c1ccccc1` and report
Key: 107

Exercise: Also `Cc1c(Cl)cccc1NC(=O)c1sc2nc3c(cc2c1N)CCCCCC3` , if possible.
Key: 26.5

Exercise: // same read-out, input: `COc1ccc(-c2cc(=O)c3c(OC)c4ccoc4cc3o2)cc1`
Key: 101

Exercise: For CN1C(=O)N(C)C2C1NN=c1s/c(=C\c3ccc(F)cc3)c(=O)n12 (centres undefined) then?
Key: -11.4

Exercise: `CCN(C(C)=O)c1ccc([N+](=O)[O-])cc1` ?
Key: 103

Exercise: Would you kindly repeat that for `COc1ccc(S(=O)(=O)N2CCCCCC2)cc1NC(=O)c1[nH]c(C)c2c1CCCCC2=O` ?
Key: 4

====

Test system: MDA-MB-468 breast
Test Summary: NCI-60 one-dose screen, 48 h
Condition Description: 10 µM unless noted
About 83,000 compounds went through this panel and 20% of them were active in at least one assay; those are over-represented in the sample as a whole. The source made the active and inactive calls. Rule for the calls: active = growth percent below 10; inactive = the rest.
Output constraint: value belongs to t for active, f for inactive

Exercise: I would be grateful if you could indicate the recorded call for `Cn1cc(-c2nnc(N)nc2-c2c[nH]c3ccc(F)cc23)c2cc(F)ccc21` .
Key: t

Exercise: Now the same for `O=[N+]([O-])c1ccc(-c2noc(-c3cccs3)n2)cc1`
Key: f

Exercise: Another compound: COc1cc(C2Nc3ccccc3S2)cc(CN2CCOCC2)c1O (configuration not stated)
Key: f

Exercise: Continue with `Cc1ccc(-c2nc3nc(-c4ccc(F)cc4)nc(N4CCNCC4)c3o2)cc1`
Key: f

Exercise: Thanks! And `Cc1ccc(/C=C2\SC(=S)N(c3ccc(F)cc3)C2=O)o1` ?
Key: f

Exercise: Would you mind doing `COc1cc2cc(Oc3cccc(NC(=O)Nc4cc(C(F)(F)F)cc(C(F)(F)F)c4)c3)c(C)nc2cc1OC` as well?
Key: t

Exercise: Now try `O=C1C(Cl)=C(N/N=c2/[nH][nH]/c(=N/NC3=C(Cl)C(=O)c4ccccc4C3=O)c3ccccc23)C(=O)c2ccccc21` .
Key: f

Exercise: Queued: `COc1cccc(-c2nc3sccn3c2-c2ccnc(NCCNS(=O)(=O)c3ccc(F)cc3)c2)c1`
Key: f

Exercise: Another compound to check: `C#C[C@]1(O)CC[C@H]2[C@@H]3CC=C4c5nc(Nc6ccccc6[N+](=O)[O-])sc5CC[C@]4(C)[C@H]3CC[C@@]21C`
Key: f

Exercise: Would you mind doing S=C1SCC(c2ccccc2)S1 (configuration not stated) as well?
Key: f

Exercise: Same thing, different compound: CC(c1ccc(-n2cccn2)cc1)c1cnc(N2CCc3ccc(C(N)=O)cc3C2)s1 (configuration not stated)
Key: f

Exercise: Also, `Cc1ccc(NC(=O)c2[nH]c(SCCN(C)C)nc2-c2ccc(F)cc2)cc1Nc1ccc2ncn(C)c(=O)c2c1` please.
Key: f

Exercise: Now this one: `CN1CCN(Cc2ccc(NC(=O)c3cncc(C#Cc4ncc5ccccn45)c3)cc2C(F)(F)F)CC1`
Key: f

Exercise: Now consider `CC(=O)c1sc(-c2ccccc2)cc1N` and answer again.
Key: f

Exercise: Now the same for `COc1ccc2nc(-c3cc(-c4cc(OC)c(OC)c(OC)c4)n[nH]3)[nH]c2c1`
Key: t

Exercise: Query `CCn1c(=O)n(C)c2c(=O)n(C)c(=O)n(C)c21` next
Key: f

Exercise: Next up: `O=C(Nc1ccccc1O)c1ccc(-c2ccc(Cl)cc2Cl)o1`
Key: f

====

System: MDA-MB-468 breast
Test Summary: NCI-60 one-dose screen, 48 h
Condition Description: 10 µM unless noted
The panel holds about 83,000 compounds, 20% with a hit somewhere; the sample as a whole holds those more often. Activity calls are given as the source filed them. The calls were made as follows: active = growth percent below 10; inactive = the rest.
Just give me one of these, please: t = active, f = inactive

Exercise: // outcome(item) with item = `Cn1cc(-c2csc(-c3cn(CCN)c4ccc(F)cc34)n2)c2cccnc21`
Key: f

Exercise: Field entry: `Cc1cc(O)cc2c1[C@H]1CC[C@]3(C)[C@@H](O)CC[C@H]3[C@@H]1C=C2`
Key: f

Exercise: Again, but for `Cn1c(Nc2ccc(C(F)(F)F)cc2)nc2cc(Oc3ccnc(-c4ncc(C(F)(F)F)[nH]4)c3)ccc21`
Key: f

Exercise: Also check `O=C(/C=C1\C(=O)N(Cc2ccc([N+](=O)[O-])cc2)c2ccccc21)c1ccc(OCCN2CCCC2)cc1`
Key: f

Exercise: Try the compound `O=C(CNc1ncco1)Nc1ccc(S(=O)(=O)c2ccc(NC(=O)CNc3ncco3)cc2)cc1`
Key: t

Exercise: Then this compound: `Cc1cc(Cl)nc(N(CCNc2ccnc3cc(Cl)ccc23)Cc2ccco2)n1`
Key: f

Exercise: Another: `c1csc(-c2c3ccc(=[N+]4CCCCC4)cc-3oc3cc(N4CCCCC4)ccc23)c1`
Key: t

Exercise: Now this one: `CCCCN1CCCCn2c1nc1c2c(=O)n(C)c(=O)n1C`
Key: f

Exercise: Proceed to `COc1ccc(-c2nc3c(c(-c4ccc(Cl)cc4)nn3-c3ccccc3)c(-c3ccc(O)cc3)c2C#N)cc1`
Key: f

Exercise: Try this compound too: `CCSc1oc(C)nc1[P+](c1ccccc1)(c1ccccc1)c1ccccc1`
Key: t

Exercise: Further, for C/C=C(/C)C(=O)O[C@@H]1CC(C)(C)CC2C34OC(=O)[C@@]21CC[C@@]3(C)[C@]1(C)CCC2C(C)(C)C(=O)CC[C@]2(C)C1C[C@@H]4Cl (some centres not stated) ?
Key: f

Exercise: Another: `COC(=O)CCC(=O)C(=O)OC`
Key: f

Exercise: Consider next the compound `Nc1nc(Cn2c(-c3nonc3N)nc3ccccc32)nc(N2CCCCC2)n1` in the same way.
Key: f

Exercise: Now the same for CC(=O)CC(c1ccc([N+](=O)[O-])cc1)c1c(O)c2ccccc2oc1=O (configuration not stated)
Key: f

Exercise: Also check `Cc1ccccc1CNc1ccc(N2CCOCC2)cc1`
Key: f

Exercise: Try this compound too: `CCCCCCCCCCCCCCCCCC(=O)Nc1ccc(O)cc1`
Key: f

Exercise: Please do the same for `Cn1c(=O)c2c(ncn2CC(=O)Nc2ccc(S(N)(=O)=O)cc2)n(C)c1=O` as well.
Key: f

Exercise: Similarly, `O=c1[nH]c(-c2ccccn2)nc2sc3c(c12)CCCCC3` ?
Key: f

Exercise: Quick one: `O=C(/C=C/c1ccccc1)Nc1ncc(Cc2ccccc2Cl)s1`
Key: t

Exercise: Proceed to `COc1c(Cl)cc(Cl)cc1Cl`
Key: f

Exercise: What do you get for `COCCOC(=O)c1ccc(C(C)C)cc1` ?
Key: f

Exercise: Also need `CCn1cc(C(=O)O)c(=O)c2cc(F)c(N3CCN(S(=O)(=O)c4ccc(Cl)cc4Cl)CC3)cc21` , thanks.
Key: t

Exercise: Same for `C[C@H](C(=O)N(CCc1ccc(Cl)c(Cl)c1)Cc1cncs1)[C@@H]1CC[C@H](C[C@H](C)n2cc(CN3CCC(c4ccc(Cl)cc4)CC3)nn2)O1`
Key: f

Exercise: // next record CN(Cc1ccccc1)c1nc(Cl)c(C2CC(c3ccc4c(c3)OCO4)=NN2c2cc(Cl)cc(Cl)c2)s1 (configuration not stated)
Key: f

Exercise: Next: `C=CCOc1ccc2c(c1)CC[C@@H]1[C@@H]2CC[C@]2(C)C(=O)/C(=N/O)C[C@@H]12`
Key: f

Exercise: Do the same for COc1ccc(C2CC(=O)Oc3c(OC)c4c(c(OC)c32)OCO4)cc1 (configuration not stated) please
Key: f

Exercise: Thanks! And COC(=O)Nc1nc2ccc(S(=O)c3ccccc3)cc2[nH]1 (configuration not stated) ?
Key: f

====

Provide the recorded growth for the entries that follow.
System: MDA-MB-468 breast
Test Summary: NCI-60 one-dose screen, 48 h (100 = growth as untreated, 0 = no growth, -100 = all killed)
Condition Description: 10 µM unless noted
About 83,000 compounds went through this panel and 20% of them were active in at least one assay; those are over-represented in the sample as a whole.
# number only, unit % dropped from output

Exercise: Missing value: growth, MDA-MB-468 breast, entry `CN(C)c1ccc(/C=C/c2sc3ccc4ccccc4c3[n+]2C)cc1` . Fill in?
Key: -86.4

Exercise: Same question for `NC(=O)CSc1nc(-c2ccc(F)cc2)cc(-c2ccco2)n1` please.
Key: 71.7

Exercise: What do you get for N#CC1=C(N)Oc2ccc3ccccc3c2C1c1ccccc1Cl (stereo unspecified) ?
Key: 31.1

Exercise: Queued: `c1cc(NCCCCN2CCOCC2)c2ccc3c(ccc4c(NCCN5CCOCC5)ccnc43)c2n1`
Key: 75.8

Exercise: Do the same for `O=C1Nc2c(ccc(Cl)c2Cl)/C1=C/c1ccc(F)cc1` please
Key: 51.9

Exercise: // repeat for `O=C1Nc2ccc(Cl)cc2/C1=C/c1ccc[nH]1` and report
Key: -19.6

Exercise: Same lookup for `Brc1ccc2[nH]cc(-c3nn4cc(-c5nccs5)nc4s3)c2c1` , please.
Key: 51.2

Exercise: Moving on to `COc1cc(CSc2nc3ccc(C)cc3c(=O)n2-c2ccccc2)cc(OC)c1OC`
Key: -8.37

Exercise: And what about the molecule `CCN(CC)CCCNCc1cc(-c2ccccc2)nc2cc(Cl)ccc12` ?
Key: -25.7

Exercise: Let us now turn to `O=C(NCc1ccccc1)Nc1ccccc1CNc1nc(Nc2ccc(OCCN3CCCC3)cc2)ncc1Cl`
Key: 74.5

Exercise: // next record `COc1cc(-c2cc(-c3ccc(C)cc3)nc3nc(N)[nH]c(=O)c23)ccc1Oc1ccnc2cc(Cl)ccc12`
Key: 52.3

Data origin: PubChem BioAssay (NCI)
